# experimental.system: Full length Human HDAC6 (Homo sapiens, UniProt Q9UBN7)
# Construct: Full length Human HDAC6; FLAG (C); host or cells: baculovirus expression system
# assay.method.text: Caliper endpoint assay for HDAC enzymatic activity (HDAC6)
# Format: biochemical
# settings: ratio of HDAC8 IC50/HDAC6 IC50
measured.parameter: Selectivity (6 v 8)

* O=C(NO)c1cc(F)c2c(c1)CCN(C1CC3(CCN(C4CC4)CC3)C1)C2 | IV (IV: >100-1000)
* O=C(NO)c1cc(F)c2c(c1)CCN(C1CCC13CNC3)C2 (stereo not shown) | IV (IV: >100-1000)

---

# experimental.system: Full length Human HDAC6 (Homo sapiens, UniProt Q9UBN7)
# Construct: Full length Human HDAC6; FLAG (C); host or cells: baculovirus expression system
# assay.method.text: Caliper endpoint assay for HDAC enzymatic activity (HDAC6)
# Format: biochemical
# settings: ratio of HDAC8 IC50/HDAC6 IC50
measured.parameter: Selectivity (6 v 8)

Some compounds with known Selectivity (6 v 8) results, for comparison:
- CC1(C)CC(N2CCc3cc(C(=O)NO)cc(F)c3C2)C1 [Compound 201]: V (V: >1000)
- CN1CC2(C[C@@H](N3CCc4cc(C(=O)NO)cc(F)c4C3)CCO2)C1 (single isomer, unassigned) [Compound 451]: IV (IV: >100-1000)
- CC[C@H]1Cc2c(F)cc(C(=O)NO)cc2CN1C[C@H]1CCCCO1 (single isomer, unassigned) [Compound 231]: IV (IV: >100-1000)
- O=C(NO)c1cc(F)c2c(c1)CCN(C1CCC3(CCCC3)CC1)C2 [Compound 193]: V (V: >1000)
- CN1C[C@]2(CN3CCc4cc(C(=O)NO)cc(F)c4C3)C[C@H]1CO2 [Compound 475]: IV (IV: >100-1000)
- O=C(NO)c1cc(F)c2c(c1)CCN([C@H]1CCCC3(CCC3)C1)C2 (single isomer, unassigned) [Compound 195]: IV (IV: >100-1000)
- CN1CC2(CN3CCc4cc(C(=O)NO)cc(F)c4C3)CC1C2 [Compound 490]: IV (IV: >100-1000)

Pending compound:
Exam item: Which Selectivity (6 v 8) reading was recorded for the compound CC(=O)N1CC2(CCC(CN3CCc4cc(C(=O)NO)cc(F)c4C3)CC2)C1 [Compound 467] ?
Marked response: IV (IV: >100-1000)

---

# experimental.system: Full length Human HDAC6 (Homo sapiens, UniProt Q9UBN7)
# Construct: Full length Human HDAC6; FLAG (C); host or cells: baculovirus expression system
# assay.method.text: Caliper endpoint assay for HDAC enzymatic activity (HDAC6)
# Format: biochemical
# settings: ratio of HDAC8 IC50/HDAC6 IC50
measured.parameter: Selectivity (6 v 8)

Examples with answers:
- O=C(NO)c1cc(F)c2c(c1)CCN(C1CCC3(CC1)COC3)C2: V (V: >1000)
- CC[C@H]1Cc2c(F)cc(C(=O)NO)cc2CN1CC1CC2CCC(C1)N2C1CC1 (single isomer, unassigned): IV (IV: >100-1000)
- O=C(NO)c1cc(F)c2c(c1)CCN([C@@H]1CCOC3(C1)CN(C1CC1)C3)C2 (single isomer, unassigned): III (III: >10-100)
- CN1CCC2(CC1)CC(N1CCc3cc(C(=O)NO)cc(F)c3C1)C2: IV (IV: >100-1000)
- CC[C@@H]1Cc2c(F)cc(C(=O)NO)cc2CN1C[C@H]1CCCCO1 (single isomer, unassigned): III (III: >10-100)

Exam item: Suppose we examine the molecule CN1CC2(CC(N3CCc4cc(C(=O)NO)cc(F)c4C3)C2)C1 ; what Selectivity (6 v 8) value has been reported?
Marked response: IV (IV: >100-1000)

Exam item: Name the reported Selectivity (6 v 8) value associated with the molecule CN1C[C@@]2(CN3CCc4cc(C(=O)NO)cc(F)c4C3)C[C@@H]1CO2
Marked response: IV (IV: >100-1000)

Exam item: Dear colleague, I am looking for the recorded Selectivity (6 v 8) of the following molecule: CN1CCC2(CCC2N2CCc3cc(C(=O)NO)cc(F)c3C2)CC1 (stereo not drawn)
Marked response: IV (IV: >100-1000)

Exam item: Name the reported Selectivity (6 v 8) value associated with the molecule CC[C@H]1Cc2c(F)cc(C(=O)NO)cc2CN1CC1C2CC1CN(C)C2 (single isomer, unassigned)
Marked response: V (V: >1000)

Exam item: Sample O=C(NO)c1cc(F)c2c(c1)CCN(C1CC3(CCCCN3C3CC3)C1)C2 (stereo not drawn) — what was its Selectivity (6 v 8)?
Marked response: IV (IV: >100-1000)

Exam item: What value of Selectivity (6 v 8) has been recorded for this entry: O=C(NO)c1cc(F)c2c(c1)CCN([C@H]1CCN(Cc3ccccc3)C3(CCC3)C1)C2 (single isomer, unassigned)
Marked response: IV (IV: >100-1000)

Exam item: Would you kindly share the measured Selectivity (6 v 8) for CN1CC2(CCC(CN3CCc4cc(C(=O)NO)cc(F)c4C3)CC2)C1 ?
Marked response: V (V: >1000)

Exam item: Could you share which Selectivity (6 v 8) value was measured for CC[C@H]1Cc2c(F)cc(C(=O)NO)cc2CN1CC12CC3CC(CC(C3)C1)C2 (single isomer, unassigned) ?
Marked response: III (III: >10-100)

Exam item: # Selectivity (6 v 8) lookup, item CC[C@@H]1Cc2c(F)cc(C(=O)NO)cc2CN1CC12CC(C1)N(C)C2 (single isomer, unassigned)
Marked response: IV (IV: >100-1000)

Exam item: Consider the molecule shown here: O=C(NO)c1cc(F)c2c(c1)CCN(CC1CC3(CCN(C4CC4)CC3)C1)C2 What is its recorded Selectivity (6 v 8)?
Marked response: IV (IV: >100-1000)

---

Target sequence: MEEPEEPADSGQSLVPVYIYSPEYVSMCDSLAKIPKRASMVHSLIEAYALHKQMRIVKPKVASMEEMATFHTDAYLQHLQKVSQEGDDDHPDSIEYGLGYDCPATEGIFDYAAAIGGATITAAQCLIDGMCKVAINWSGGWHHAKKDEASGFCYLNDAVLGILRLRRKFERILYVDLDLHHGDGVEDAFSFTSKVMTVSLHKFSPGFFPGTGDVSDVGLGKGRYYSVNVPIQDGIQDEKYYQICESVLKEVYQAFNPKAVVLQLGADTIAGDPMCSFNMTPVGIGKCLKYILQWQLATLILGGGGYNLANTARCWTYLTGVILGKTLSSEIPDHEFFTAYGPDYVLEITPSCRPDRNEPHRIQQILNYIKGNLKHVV
measured.parameter: IC50

Exam item: What IC50 value was documented for this molecule, CC[C@@H]1Cc2c(F)cc(C(=O)NO)cc2CN1C1COC1 (single isomer, unassigned) [Compound 600] ?
Marked response: 1 to 10 µM

Exam item: Given the molecule O=C(NO)c1ccc2c(c1F)CCN(C1CC3(CCCCC3)C1)C2 [Compound 506] , what is its reported IC50?
Marked response: 10 to 100 µM

Exam item: Please look up its IC50: O=C(NO)c1cc(F)c2c(c1)C[C@H]1CCCN1C2 [Compound 120]
Marked response: 1 to 10 µM

Exam item: Reported IC50 for CN1Cc2cc(C(=O)NO)ccc2[C@H]2CCCN21 (single isomer, unassigned) [Compound 161] : what is it?
Marked response: 1 to 10 µM

Exam item: Which IC50 value belongs to O=C(NO)c1cc(F)c2c(c1)CCN(C1CC3(CCOCC3)C1)C2 [Compound 179] ?
Marked response: > 100 µM

Exam item: Need IC50 of CN1C[C@]2(CN3CCc4cc(C(=O)NO)cc(F)c4C3)C[C@H]1CO2 [Compound 475] , thanks.
Marked response: 10 to 100 µM

Exam item: Return reported IC50; argument: NC12CC(CN3CCc4cc(C(=O)NO)cc(F)c4C3)(C1)C2 [Compound 486]
Marked response: 10 to 100 µM

Exam item: Give the measured IC50 of CN1[C@@H]2CC[C@H]1CC(CN1CCc3cc(C(=O)NO)cc(F)c3C1)C2 (single isomer, unassigned) [Compound 483] .
Marked response: 1 to 10 µM

---

# experimental.system: Full length Human HDAC6 (Homo sapiens)
# Construct: Full length Human HDAC6; FLAG (C); host or cells: baculovirus expression system
# Sequence (Q9UBN7 1-1215): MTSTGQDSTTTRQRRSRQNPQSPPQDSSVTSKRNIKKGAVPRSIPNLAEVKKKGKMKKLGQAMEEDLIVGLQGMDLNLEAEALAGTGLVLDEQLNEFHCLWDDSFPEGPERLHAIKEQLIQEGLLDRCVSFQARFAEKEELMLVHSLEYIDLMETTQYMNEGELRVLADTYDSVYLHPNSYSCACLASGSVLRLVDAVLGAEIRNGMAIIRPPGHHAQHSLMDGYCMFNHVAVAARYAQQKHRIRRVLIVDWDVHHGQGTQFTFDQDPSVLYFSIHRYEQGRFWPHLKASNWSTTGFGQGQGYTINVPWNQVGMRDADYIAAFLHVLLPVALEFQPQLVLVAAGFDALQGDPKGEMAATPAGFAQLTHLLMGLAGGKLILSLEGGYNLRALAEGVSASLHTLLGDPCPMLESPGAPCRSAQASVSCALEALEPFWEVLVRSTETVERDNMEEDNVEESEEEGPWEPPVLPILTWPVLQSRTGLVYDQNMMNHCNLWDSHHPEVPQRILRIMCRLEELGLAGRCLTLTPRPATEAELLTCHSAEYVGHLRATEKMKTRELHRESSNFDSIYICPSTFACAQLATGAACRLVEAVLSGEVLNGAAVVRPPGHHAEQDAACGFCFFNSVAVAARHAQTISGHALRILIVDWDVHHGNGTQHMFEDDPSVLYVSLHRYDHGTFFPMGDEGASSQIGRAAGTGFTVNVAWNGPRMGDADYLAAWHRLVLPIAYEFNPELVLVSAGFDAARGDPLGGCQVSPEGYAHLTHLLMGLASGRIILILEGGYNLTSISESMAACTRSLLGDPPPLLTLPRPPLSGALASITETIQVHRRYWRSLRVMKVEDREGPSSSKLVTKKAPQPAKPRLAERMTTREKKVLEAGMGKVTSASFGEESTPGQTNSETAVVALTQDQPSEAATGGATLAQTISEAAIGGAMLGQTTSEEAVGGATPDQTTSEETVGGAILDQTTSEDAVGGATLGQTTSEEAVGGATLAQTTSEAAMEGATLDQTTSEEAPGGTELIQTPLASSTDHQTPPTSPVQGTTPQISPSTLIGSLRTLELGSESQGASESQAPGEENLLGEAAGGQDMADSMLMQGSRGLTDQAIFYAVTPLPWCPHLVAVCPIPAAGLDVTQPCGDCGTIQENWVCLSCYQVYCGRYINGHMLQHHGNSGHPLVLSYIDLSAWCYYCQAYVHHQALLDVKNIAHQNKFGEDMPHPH
# assay.method.text: Caliper endpoint assay for HDAC enzymatic activity (HDAC6)
# Format: biochemical
# settings: ratio of HDAC8 IC50/HDAC6 IC50
measured.parameter: Selectivity (6 v 8)

Guide cases for Selectivity (6 v 8), answers given:
- CN1CC2CCC(C1)N2Cc1ccc(C(=O)NO)cc1F [Compound 56]: III (III: >10-100)
- CC[C@@H]1Cc2c(F)cc(C(=O)NO)cc2CN1CC1CC2(CCCCC2)C1 (single isomer, unassigned) [Compound 521]: III (III: >10-100)
- CC[C@@H]1Cc2c(F)cc(C(=O)NO)cc2CN1C1CC(C)(C)C1 (single isomer, unassigned) [Compound 592]: IV (IV: >100-1000)
- O=C(NO)c1cc(F)c2c(c1)CCN(C1CCC3(CC1)C[S+]([O-])C3)C2 (stereo not drawn) [Compound 426]: V (V: >1000)
- CC[C@H]1Cc2c(F)cc(C(=O)NO)cc2CN1CC12CC(C1)N(C)C2 (single isomer, unassigned) [Compound 535]: IV (IV: >100-1000)
- CC[C@H]1Cc2c(F)cc(C(=O)NO)cc2CN1CC1COC1 (single isomer, unassigned) [Compound 216]: V (V: >1000)
- O=C(NO)c1cc(F)c2c(c1)CCN([C@@H]1CCNC3(CCC3)C1)C2 (single isomer, unassigned) [Compound 436]: IV (IV: >100-1000)
- O=C(NO)c1cc(F)c2c(c1)CCN([C@H]1CC[C@]13CCOC3)C2 (single isomer, unassigned) [Compound 316]: V (V: >1000)
- CC[C@H]1Cc2c(F)cc(C(=O)NO)cc2CN1C[C@]12C[C@H](CO1)N(C)C2 (single isomer, unassigned) [Compound 552]: IV (IV: >100-1000)
- CC[C@@H]1Cc2c(F)cc(C(=O)NO)cc2CN1C1CC2(CCCCC2)C1 (single isomer, unassigned) [Compound 232]: IV (IV: >100-1000)

Exam item: Form field: reported Selectivity (6 v 8) of O=C1CC2CCCC(C1)N2Cc1ccc(C(=O)NO)cc1F [Compound 62]
Marked response: III (III: >10-100)

Exam item: # lookup: Selectivity (6 v 8) of CC(=O)N1CCC2(CC1)CC(N1CCc3cc(C(=O)NO)cc(F)c3C1)C2 [Compound 199]
Marked response: IV (IV: >100-1000)

Exam item: Returns the measured Selectivity (6 v 8) for the input compound. Input: O=C(NO)c1cc(F)c2c(c1)CCN(CC1C3CC1CN(C1CC1)C3)C2 (stereo not drawn) [Compound 494]
Marked response: III (III: >10-100)

Exam item: State the recorded Selectivity (6 v 8) for this entry: O=C(NO)c1cc(F)c2c(c1)CCN([C@H]1C[C@]3(CCCNC3)C1)C2 (single isomer, unassigned) [Compound 341]
Marked response: IV (IV: >100-1000)
